# System: NCI/ADR-RES
# Setup conditions: read-out: Median Lethal Concentration (LC50), Breast Cancer, 48 hours, SRB assay

- Smiles data: "O=C1C(=Cc2ccccc2O)COCC1=Cc1ccccc1O"
  CC50, µM: 71

---

# System: BT-549
# Assay details: cells
# Setup conditions: Homo sapiens, BT-549, 48 h, read-out: Median Lethal Concentration (LC50)
Some molecules, each annotated with its measured log10 CC50.
Measured metric: log10 CC50 (log10 of the value in µM)

- Molecule: "OC(CCc1ccc(F)cc1F)CCc1ccc(F)cc1F"
  Recorded result: 1.81
- Molecule: "CC1(/C=C/c2ccccc2O)C=Cc2ccccc2O1 (stereo not drawn)"
  Recorded result: 1.75
- Molecule: "CC(=O)O.O=C1C(=Cc2ccccc2F)CNCC1=Cc1ccccc1F"
  Recorded result: 0.67
- Molecule: "COc1cc(/C=C/C(=O)CC(=O)/C=C/c2ccc(O)c(OC)c2)ccc1O"
  Recorded result: 1.60
- Molecule: "O=C1C(=Cc2ccccc2O)CCCC1=Cc1ccccc1O"
  Recorded result: 1.42
- Molecule: "O=C(C=Cc1ccc(F)cc1F)C=Cc1ccc(F)cc1F"
  Recorded result: 1.67
